Measured Selectivity ratio, listed per entry.
Organism: Rattus norvegicus
experiment description: Selectivity ratio of EC50 for alpha1A adrenoceptor in Wistar rat vas deferens to Ki for Alpha-1B adrenoceptor in Wistar rat spleen
Type: tissue-based
Provide a numeric answer; units are not to be included.

COc1ccc(C[C@@H](C)NC[C@H]2Oc3ccccc3O[C@H]2C)cc1S(N)(=O)=O : 1
COc1ccc(C[C@@H](C)NCCOc2ccccc2OC(C)C)cc1S(N)(=O)=O : 7
COc1ccc(C[C@@H](C)NCCOc2ccccc2OCc2ccccc2)cc1S(N)(=O)=O : 12
COc1ccc(C[C@@H](C)NCCOc2ccccc2OCC(F)(F)F)cc1S(N)(=O)=O : 4

In: Given the entry "COc1ccc(C[C@@H](C)NC[C@@H]2Oc3ccccc3O[C@@H]2C)cc1S(N)(=O)=O" , report its measured Selectivity ratio.
Out: 1

###

Listed below: pKi values for each entry.
target of assay: Alpha-1D adrenergic receptor (Homo sapiens)
Sequence (P25100 whole entry): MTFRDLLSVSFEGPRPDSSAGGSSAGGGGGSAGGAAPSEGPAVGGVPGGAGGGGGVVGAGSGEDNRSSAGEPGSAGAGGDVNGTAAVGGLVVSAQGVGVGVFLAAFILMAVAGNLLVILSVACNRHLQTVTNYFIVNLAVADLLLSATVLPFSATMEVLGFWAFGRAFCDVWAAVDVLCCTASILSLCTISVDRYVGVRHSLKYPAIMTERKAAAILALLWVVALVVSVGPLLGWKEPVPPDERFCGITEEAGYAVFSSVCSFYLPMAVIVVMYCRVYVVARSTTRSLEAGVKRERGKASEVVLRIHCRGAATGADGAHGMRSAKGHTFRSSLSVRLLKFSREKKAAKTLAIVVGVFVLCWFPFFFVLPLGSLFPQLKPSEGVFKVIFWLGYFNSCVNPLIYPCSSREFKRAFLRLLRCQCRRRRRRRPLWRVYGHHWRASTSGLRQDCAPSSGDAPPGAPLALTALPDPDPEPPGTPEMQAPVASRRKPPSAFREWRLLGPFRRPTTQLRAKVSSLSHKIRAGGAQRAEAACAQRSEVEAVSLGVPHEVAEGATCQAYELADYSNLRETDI
Value format note: pKi is -log10 of concentration (mol/L); just state the number.

COc1ccc(C[C@@H](C)NCCOc2ccccc2OC(C)C)cc1S(N)(=O)=O : 9.61

In: # query: pKi | item "COc1ccc(C[C@@H](C)NCCOc2ccccc2OCc2ccccc2)cc1S(N)(=O)=O" | system: Alpha-1D adrenergic receptor (Homo sapiens)
Out: 9.49

In: Recorded pKi for "COc1ccc(C[C@@H](C)NC[C@@H]2Oc3ccccc3O[C@@H]2C)cc1S(N)(=O)=O" with Alpha-1D adrenergic receptor (Homo sapiens), please?
Out: 7.81

In: Lab request: please report pKi under test system Alpha-1D adrenergic receptor (Homo sapiens) for "COc1ccc(C[C@@H](C)NCCOc2ccccc2OCC(F)(F)F)cc1S(N)(=O)=O"
Out: 9.02

In: Short answer please: pKi, Alpha-1D adrenergic receptor (Homo sapiens), entry "CCOc1ccccc1OCCN[C@H](C)Cc1ccc(OC)c(S(N)(=O)=O)c1"
Out: 10.00

In: Notebook entry, Alpha-1D adrenergic receptor (Homo sapiens) assay: pKi of "COc1ccc(C[C@@H](C)NC[C@H]2Oc3ccccc3O[C@H]2C)cc1S(N)(=O)=O" = ?
Out: 7.76

###

Species on record: Rattus norvegicus
experiment description: Selectivity ratio of Ki for alpha1D adrenoceptor in Wistar rat thoracic aorta to Ki for Alpha-1B adrenoceptor in Wistar rat spleen
Format: tissue-based
Given measured Selectivity ratio, output met if it is greater than or equal to 0.8 and not met if not.

// below: answered compounds
COc1ccc(C[C@@H](C)NCCOc2ccccc2OCc2ccccc2)cc1S(N)(=O)=O : met
COc1ccc(C[C@@H](C)NCCOc2ccccc2OC(C)C)cc1S(N)(=O)=O : met
COc1ccc(C[C@@H](C)NCCOc2ccccc2OCC(F)(F)F)cc1S(N)(=O)=O : met

In: Given "COc1ccc(C[C@@H](C)NC[C@H]2Oc3ccccc3O[C@H]2C)cc1S(N)(=O)=O" , state whether its Selectivity ratio is at least 0.8.
Out: not met

###

target of assay: Alpha-1D adrenergic receptor (Rattus norvegicus)
Sequence (P23944 whole entry): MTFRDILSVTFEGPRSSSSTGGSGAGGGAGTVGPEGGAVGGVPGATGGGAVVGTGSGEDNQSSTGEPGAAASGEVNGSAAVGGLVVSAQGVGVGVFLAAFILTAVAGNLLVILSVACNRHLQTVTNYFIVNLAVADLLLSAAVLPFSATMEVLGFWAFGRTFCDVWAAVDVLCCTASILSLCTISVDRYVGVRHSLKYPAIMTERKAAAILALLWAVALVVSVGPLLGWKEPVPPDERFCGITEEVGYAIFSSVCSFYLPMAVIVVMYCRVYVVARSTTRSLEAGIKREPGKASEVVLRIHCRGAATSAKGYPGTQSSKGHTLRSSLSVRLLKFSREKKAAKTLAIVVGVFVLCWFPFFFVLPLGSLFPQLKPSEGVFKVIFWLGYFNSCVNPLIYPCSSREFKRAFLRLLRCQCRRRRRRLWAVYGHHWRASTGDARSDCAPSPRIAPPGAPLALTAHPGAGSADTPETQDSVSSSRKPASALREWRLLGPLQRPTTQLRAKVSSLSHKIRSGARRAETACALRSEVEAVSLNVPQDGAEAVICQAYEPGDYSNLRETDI
experiment description: Antagonist activity at Alpha-1D adrenoceptor in Wistar rat thoracic aorta assessed as noradrenaline induced contractions after 30 mins
parameter: Kb (nM)
Give the value, in units of nM, as a plain number.

COc1ccc(C[C@@H](C)NCCOc2ccccc2OCC(F)(F)F)cc1S(N)(=O)=O : 0.955
COc1ccc(C[C@@H](C)NC[C@@H]2Oc3ccccc3O[C@@H]2C)cc1S(N)(=O)=O : 21.4
COc1ccc(C[C@@H](C)NCCOc2ccccc2OC(C)C)cc1S(N)(=O)=O : 0.501

In: Bench note: what Kb did "COc1ccc(C[C@@H](C)NC[C@H]2Oc3ccccc3O[C@H]2C)cc1S(N)(=O)=O" show?
Out: 60.3

###

Parameter: Selectivity ratio. Scope: all listed entries.
Organism: Rattus norvegicus
experiment description: Selectivity ratio of Ki for alpha1A adrenoceptor in Wistar rat vas deferens to EC50 for Alpha-1D adrenoceptor in Wistar rat thoracic aorta
Format: tissue-based
Answer with the value's number alone.

Reference set (4 entries):
COc1ccc(C[C@@H](C)NC[C@H]2Oc3ccccc3O[C@H]2C)cc1S(N)(=O)=O : 2
COc1ccc(C[C@@H](C)NCCOc2ccccc2OC(C)C)cc1S(N)(=O)=O : 2
COc1ccc(C[C@@H](C)NCCOc2ccccc2OCC(F)(F)F)cc1S(N)(=O)=O : 4
COc1ccc(C[C@@H](C)NCCOc2ccccc2OCc2ccccc2)cc1S(N)(=O)=O : 3

In: # input compound: "COc1ccc(C[C@@H](C)NC[C@@H]2Oc3ccccc3O[C@@H]2C)cc1S(N)(=O)=O" ; wanted: its Selectivity ratio
Out: 1

###

List of Ki tested on Alpha-1A adrenergic receptor (Homo sapiens).
Sequence (P35348 whole entry): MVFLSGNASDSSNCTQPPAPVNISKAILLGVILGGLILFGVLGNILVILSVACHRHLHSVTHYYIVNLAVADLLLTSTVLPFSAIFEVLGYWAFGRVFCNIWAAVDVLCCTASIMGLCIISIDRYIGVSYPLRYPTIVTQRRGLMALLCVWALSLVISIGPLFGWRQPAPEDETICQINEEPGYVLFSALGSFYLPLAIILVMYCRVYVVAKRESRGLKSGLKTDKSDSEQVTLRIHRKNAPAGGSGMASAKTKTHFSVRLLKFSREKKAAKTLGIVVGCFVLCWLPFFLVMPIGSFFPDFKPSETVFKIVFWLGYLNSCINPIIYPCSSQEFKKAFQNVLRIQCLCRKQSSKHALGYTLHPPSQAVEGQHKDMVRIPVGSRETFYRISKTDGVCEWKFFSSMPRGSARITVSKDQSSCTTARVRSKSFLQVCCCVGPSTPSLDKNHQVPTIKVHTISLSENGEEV
// return numeric value only (unit: nM, not printed)

In: Entry "COc1ccc(C[C@@H](C)NC[C@@H]2Oc3ccccc3O[C@@H]2C)cc1S(N)(=O)=O" , system Alpha-1A adrenergic receptor (Homo sapiens): what Ki was measured?
Out: 11.5

In: For the record "COc1ccc(C[C@@H](C)NCCOc2ccccc2OCC(F)(F)F)cc1S(N)(=O)=O" , what value of Ki is listed for Alpha-1A adrenergic receptor (Homo sapiens)?
Out: 0.603

###

experiment description: Selectivity ratio of Ki for human alpha1A adrenoceptor to Ki for human Alpha-1D adrenoceptor
Listing of recorded Ki ratio by entry.

COc1ccc(C[C@@H](C)NCCOc2ccccc2OCC(F)(F)F)cc1S(N)(=O)=O : 2
COc1ccc(C[C@@H](C)NCCOc2ccccc2OCc2ccccc2)cc1S(N)(=O)=O : 0.9
COc1ccc(C[C@@H](C)NCCOc2ccccc2OC(C)C)cc1S(N)(=O)=O : 0.7
COc1ccc(C[C@@H](C)NC[C@@H]2Oc3ccccc3O[C@@H]2C)cc1S(N)(=O)=O : 1

Shifting focus to the compound that follows.
In: Which measured Ki ratio value corresponds to "COc1ccc(C[C@@H](C)NC[C@H]2Oc3ccccc3O[C@H]2C)cc1S(N)(=O)=O" ?
Out: 0.9

###

experiment description: Selectivity ratio of Ki for human alpha1A adrenoceptor to Ki for human Alpha-1B adrenoceptor
// reported Ki ratio per item
Please give the numeric answer without any surrounding text.

Here's what some known entries look like.
COc1ccc(C[C@@H](C)NC[C@@H]2Oc3ccccc3O[C@@H]2C)cc1S(N)(=O)=O : 3
COc1ccc(C[C@@H](C)NCCOc2ccccc2OC(C)C)cc1S(N)(=O)=O : 5
COc1ccc(C[C@@H](C)NCCOc2ccccc2OCC(F)(F)F)cc1S(N)(=O)=O : 9

In: Which Ki ratio value is on record for "COc1ccc(C[C@@H](C)NCCOc2ccccc2OCc2ccccc2)cc1S(N)(=O)=O" ?
Out: 6

In: Entry "COc1ccc(C[C@@H](C)NC[C@H]2Oc3ccccc3O[C@H]2C)cc1S(N)(=O)=O" : reported Ki ratio = ?
Out: 4
